measuredTarget: T1, Recombinant Human DLL4 (delta-like protein 4) (human, UniProt Q9NR61 27-524)
T1 construct: Bought recombinant protein (R&D Systems Cat#1506-D4/CF); also called rHuman DLL4; Delta-like 4
testSummary: ELISA, DLL4 coated on plate; Fab at 0.41 (head prints µM, text says nM)
experimentalReadout: ELISA signal

Could you share which ELISA signal value was measured for Fab VH5-51_IGHD5-18*01>3_IGHJ4*01 G100K/G104T G24T/S28R/G35V (H:KT TRV) & V3-4_IGLJ1*01 V91L/S96P S52M (Fab, V domains shown, Tested as a Fab made in E. coli; also called H:KT TRV & L:LP S52M) VH: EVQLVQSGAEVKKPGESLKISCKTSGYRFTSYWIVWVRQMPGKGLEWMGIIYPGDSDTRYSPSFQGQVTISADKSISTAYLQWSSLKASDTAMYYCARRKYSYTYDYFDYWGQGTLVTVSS VL: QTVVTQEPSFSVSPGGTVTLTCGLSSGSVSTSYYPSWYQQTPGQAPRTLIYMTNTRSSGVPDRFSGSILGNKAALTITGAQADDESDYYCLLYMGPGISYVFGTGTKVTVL ?
0.03
